Test: qHTS of pediatric cancer cell lines to identify multiple opportunities for drug repurposing: Primary screen for SJ-GBM2 cells (AID 1347091)
Settings: SJ-GBM2 viability, CellTiter-Glo luminescence, 48 h; series mostly up to 46 µM
Protocol: Drug repurposing or repositioning has been offered as a strategy for drug development in oncology programs. […] [1] Shen, M et al. Quantitative high-throughput phenotypic screening of pediatric cancer cell lines identifies multiple opportunities for drug repurposing. […] Cells were assayed in growth media at a density of 500-1,000 cells/well. […] After a 15 min incubation at room temperature, samples were analyzed for luminescence intensity using a ViewLux High-throughput CCD imager equipped with clear filters.
Results filed as inconclusive are left out. Activity calls are given as the source filed them. The call rests on the fitted dose curve; in most records, active means well fitted cell-killing curve with a large enough effect; inconclusive means small, poorly fitted or top-dose-only effect; inactive means no such curve, though single readings can be large or run the other way.
// one of class 1 for active, class 0 for inactive, no free text

Please review the entries below; each comes with its answer.
smiles.code: O=[N+]([O-])c1ccc([As](=O)(O)O)cc1
class.label: class 0

smiles.code: O=C(Nc1ccncc1)C(=O)c1cn(Cc2ccc(Cl)cc2)c2ccccc12
class.label: class 1

smiles.code: COC[C@H]1OC(=O)c2coc3c2[C@@]1(C)C1=C(C3=O)[C@@H]2CC[C@H](O)[C@@]2(C)C[C@@H]1OC(C)=O
class.label: class 1

smiles.code: O=[N+]([O-])/N=C1\NCCN1Cc1ccc(Cl)nc1
class.label: class 0

API: the following record is the query input.
What classification did O=C(O)CNC(=O)c1c(O)c2ccccc2n(Cc2ccccc2)c1=O end up with in this test?
class 0
